# maps each entry to its IC50
# study system: Y641N EZH2 (Homo sapiens, UniProt Q15910, Y641N)
# Sequence (Q15910 whole entry Y641N): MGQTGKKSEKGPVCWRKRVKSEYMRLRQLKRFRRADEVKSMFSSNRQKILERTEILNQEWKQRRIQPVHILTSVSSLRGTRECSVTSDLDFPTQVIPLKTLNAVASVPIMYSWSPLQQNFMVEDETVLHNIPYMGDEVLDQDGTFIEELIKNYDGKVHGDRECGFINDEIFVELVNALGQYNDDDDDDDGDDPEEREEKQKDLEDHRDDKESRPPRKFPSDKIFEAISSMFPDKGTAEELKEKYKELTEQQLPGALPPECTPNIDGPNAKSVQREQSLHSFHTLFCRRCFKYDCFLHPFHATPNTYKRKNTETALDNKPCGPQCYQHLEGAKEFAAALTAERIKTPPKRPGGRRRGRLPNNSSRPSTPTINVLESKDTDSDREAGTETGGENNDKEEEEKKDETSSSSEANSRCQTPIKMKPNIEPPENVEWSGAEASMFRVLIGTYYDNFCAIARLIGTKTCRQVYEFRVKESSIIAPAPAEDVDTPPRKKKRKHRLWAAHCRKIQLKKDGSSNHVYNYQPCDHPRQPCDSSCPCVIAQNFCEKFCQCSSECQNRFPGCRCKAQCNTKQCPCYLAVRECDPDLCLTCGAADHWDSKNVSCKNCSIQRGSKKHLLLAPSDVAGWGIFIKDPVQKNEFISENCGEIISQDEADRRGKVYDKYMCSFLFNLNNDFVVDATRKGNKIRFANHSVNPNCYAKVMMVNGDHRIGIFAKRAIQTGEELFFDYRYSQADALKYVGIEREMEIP
# Sequence (O75530 whole entry partner): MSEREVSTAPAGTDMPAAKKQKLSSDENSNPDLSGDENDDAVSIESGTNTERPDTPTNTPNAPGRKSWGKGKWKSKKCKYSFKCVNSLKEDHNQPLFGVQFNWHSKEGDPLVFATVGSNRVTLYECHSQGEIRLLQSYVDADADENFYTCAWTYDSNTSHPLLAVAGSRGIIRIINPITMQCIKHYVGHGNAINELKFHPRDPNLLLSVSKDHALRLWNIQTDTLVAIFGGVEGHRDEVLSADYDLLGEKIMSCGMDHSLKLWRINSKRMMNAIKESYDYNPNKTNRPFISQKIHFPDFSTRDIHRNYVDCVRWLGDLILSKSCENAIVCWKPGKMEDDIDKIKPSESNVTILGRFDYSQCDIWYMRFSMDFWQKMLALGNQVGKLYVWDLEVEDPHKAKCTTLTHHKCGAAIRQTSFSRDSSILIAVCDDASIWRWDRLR
# Sequence (Q15022 whole entry partner): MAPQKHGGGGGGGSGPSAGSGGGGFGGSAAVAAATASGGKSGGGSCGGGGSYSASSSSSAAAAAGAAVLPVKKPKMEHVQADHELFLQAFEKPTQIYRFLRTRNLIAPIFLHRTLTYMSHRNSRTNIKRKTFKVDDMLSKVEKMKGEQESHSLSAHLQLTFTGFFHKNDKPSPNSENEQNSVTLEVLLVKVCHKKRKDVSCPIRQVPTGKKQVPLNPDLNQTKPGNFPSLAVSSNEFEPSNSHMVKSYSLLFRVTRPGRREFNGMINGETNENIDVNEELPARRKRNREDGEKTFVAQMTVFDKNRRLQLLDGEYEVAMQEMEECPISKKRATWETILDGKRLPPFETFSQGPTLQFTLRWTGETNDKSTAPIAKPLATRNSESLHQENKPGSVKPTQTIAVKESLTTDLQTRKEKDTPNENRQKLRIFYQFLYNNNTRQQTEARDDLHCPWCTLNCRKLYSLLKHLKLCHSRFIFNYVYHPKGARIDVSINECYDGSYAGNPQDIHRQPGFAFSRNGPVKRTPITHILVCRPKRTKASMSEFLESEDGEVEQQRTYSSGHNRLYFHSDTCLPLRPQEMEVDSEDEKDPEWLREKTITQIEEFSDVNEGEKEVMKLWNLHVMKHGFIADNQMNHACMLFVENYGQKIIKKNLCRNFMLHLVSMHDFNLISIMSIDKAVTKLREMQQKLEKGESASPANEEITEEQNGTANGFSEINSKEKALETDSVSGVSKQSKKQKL
# experimental details: Y641N EZH2 assay: as EZH2 assay, with reconstituted H3K27Me2 oligonucleosomes as substrate
# Type: biochemical
# measurement context: Y641N mutant EZH2, H3K27Me2 oligonucleosome substrate; read-out: Y641N EZH2 IC50

| molecule | IC50 |
| --- | --- |
| Cc1cc(C)c(CNC(=O)c2c(C)n(C(C)c3ccccc3)c3c(=O)n(C)ccc23)c(=O)[nH]1 (racemic) | 1000 to 10000 nM |
| Cc1cc(C)c(CNC(=O)c2c(C)n(C(C)Cn3cnc4ccccc43)c3ncccc23)c(=O)[nH]1 (racemic) | 1000 to 10000 nM |
| COc1cc(C)[nH]c(=O)c1CNC(=O)c1c(C)n(-c2cccc3c2CCCN3)c2ccccc12 | < 100 nM |
| COc1cc(C)[nH]c(=O)c1CNC(=O)c1c(C)n(C(C)C(C)OC)c2ncccc12 (single isomer, unassigned) | 100 to 1000 nM |
| Cc1cc(C)c(COC(=O)c2c(C)n(C3CCc4ccccc43)c3ncccc23)c(=O)[nH]1 (racemic) | 100 to 1000 nM |
| Cc1cc(C)c(CNC(=O)c2cnn(C(C)c3ccccc3)c2C)c(O)n1 (single isomer, unassigned) | > 10000 nM |
| Cc1cc(C)c(CNC(=O)c2c(C)n(S(=O)(=O)N3CCCCC3)c3ncccc23)c(=O)[nH]1 | 1000 to 10000 nM |
| CNC(=O)c1cccc(C(C)n2c(C)c(C(=O)NCc3c(OC)cc(C)[nH]c3=O)c3cccnc32)c1 (centres unmarked) | 100 to 1000 nM |

* * *

# study system: Y641N EZH2 (Homo sapiens, UniProt Q15910, Y641N)
# experimental details: Y641N EZH2 assay: as EZH2 assay, with reconstituted H3K27Me2 oligonucleosomes as substrate
# Assay type: biochemical
# measurement context: Y641N EZH2 IC50, Y641N mutant EZH2, H3K27Me2 oligonucleosome substrate
Measured IC50, listed per entry for reference.

| compound | study system | IC50 |
| --- | --- | --- |
| COc1cc(C)[nH]c(=O)c1CNC(=O)c1c(C)n(C(C)C2CCCNC2)c2ccccc12 (centres unmarked) | Y641N EZH2 (Homo sapiens, UniProt Q15910, Y641N) | 0.1 to 1 µM |
| COc1ccc2c(C(=O)NCc3c(OC)cc(C)[nH]c3=O)c(C)n(C(C)C3CCOCC3)c2c1 (single isomer, unassigned) | Y641N EZH2 (Homo sapiens, UniProt Q15910, Y641N) | < 0.1 µM |
| CC[C@@H](C)n1c(C)c(C(=O)NCc2c(C)cc(C)[nH]c2=O)c2cnc(C(C)C)nc21 | Y641N EZH2 (Homo sapiens, UniProt Q15910, Y641N) | 0.1 to 1 µM |
| CCC(C)n1c(C)c(C(=O)NCc2c(OC)cc(C)[nH]c2=O)c2ccc(-c3ccc(N4CCNCC4)nc3)cc21 (racemic) | Y641N EZH2 (Homo sapiens, UniProt Q15910, Y641N) | < 0.1 µM |
| COc1cc(C)[nH]c(=O)c1CNC(=O)c1c(C)n(C(C)C2CCC(S(=O)(=O)C(C)C)CC2)c2ccccc12 (single isomer, unassigned) | Y641N EZH2 (Homo sapiens, UniProt Q15910, Y641N) | < 0.1 µM |
